System: F380Y/beta2Delta
protocolSummary: modulators of BK channel variants, profiling panel, selectivity assay, cell-based, U2OS BacMam, thallium flux, beta subunits (AID 1259406);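 also: initial slope of Thallos dye fluorescence rise after thallium is added; log ratio against the mean of 0.3% DMSO vehicle wells on the same plate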
measurementContext: at 30 µM
recordedEndpoint: log fold change Tl+ flux
I only need the number, thanks.

Q. I'd like to know its log fold change Tl+ flux. The compound in question is CCC1=C[C@H]2CN(C1)Cc1c([nH]c3ccccc13)[C@@](C(=O)OC)(c1cc3c(cc1OC)N(C)[C@H]1[C@@](O)(C(=O)OC)[C@H](OC(C)=O)[C@]4(CC)C=CCN5CC[C@]31[C@@H]54)C2
A. 0.0207

Q. Tell me the measured log fold change Tl+ flux of Cc1cccc(CCN2CCC(C(=O)c3ccc(NS(C)(=O)=O)cc3)CC2)n1 , please.
A. 0.0105

Q. I have this compound here, O=C(c1ccccc1)c1c(Cl)cc(C(F)(F)F)cc1Cl , and I need its recorded log fold change Tl+ flux.
A. 0.0614

Q. log fold change Tl+ flux for O=[N+]([O-])c1ccc(N2CCSCC2)cc1O ?
A. -0.0262

====

studySystem: Calcium-activated potassium channel subunit alpha-1 (Homo sapiens) + Leucine-rich repeat-containing protein 26 (Homo sapiens) (UniProt Q12791+Q2I0M4)
Sequence (Q2I0M4 whole entry, looked up, one chain of several): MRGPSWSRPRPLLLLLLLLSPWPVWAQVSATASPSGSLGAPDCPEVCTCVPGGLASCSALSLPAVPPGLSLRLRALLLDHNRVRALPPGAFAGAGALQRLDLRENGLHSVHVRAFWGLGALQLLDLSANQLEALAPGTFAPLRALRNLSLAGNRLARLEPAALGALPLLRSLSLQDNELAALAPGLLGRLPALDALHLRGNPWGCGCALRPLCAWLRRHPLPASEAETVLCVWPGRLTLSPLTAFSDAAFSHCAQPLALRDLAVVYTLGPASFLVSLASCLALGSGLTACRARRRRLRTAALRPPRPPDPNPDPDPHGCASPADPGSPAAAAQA
protocolSummary: modulators of BK channel variants, profiling panel, selectivity assay, cell-based, U2OS BacMam, thallium flux, beta subunits (AID 1259406);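 also: initial slope of Thallos dye fluorescence rise after thallium is added; log ratio against the mean of 0.3% DMSO vehicle wells on the same plate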
measurementContext: F380Y/Slo1WT/gamma1, at 30 µM
In this scheme, each record receives a class according to its log fold change Tl+ flux; the ranges are Low: < -0.03; Medium: ≥ -0.03 and < 0.004; High: ≥ 0.004

Q. Which of the defined bands does the recorded log fold change Tl+ flux of Cc1nn(-c2ccccc2)nc1CNC(=O)COc1ccccc1 sit within?
A. Low

Q. Consider Fc1ccc(CCc2ccc(F)cc2)cc1 . To which log fold change Tl+ flux class does it belong?
A. High

Q. Note: place this compound into its band. Item: CCN(CC)CC#CCOC(=O)C(O)(c1ccccc1)C1CCCCC1 (stereo unspecified)
A. Low

Q. Which log fold change Tl+ flux category applies to CC(C)(C)c1cc(-c2nc(-c3ccc(C(F)(F)F)cc3)no2)n(Cc2ccccc2)n1 here?
A. Low

Q. For this compound, which bin applies? O=c1[nH]c(=O)n(C2CC(O)C(CO)O2)cc1F (stereo unspecified)
A. Medium

Q. Please let me know in which category the item CCOC(=O)C(C#N)=CNc1ccccc1OC(F)(F)F belongs.
A. Medium

Q. Pick a category. Item: CCOC(=O)CSc1nnc(OCC)n1-c1ccccc1
A. High

Q. Pick a category. Item: Cc1ccc(S(=O)(=O)Oc2c(Cc3ccccc3)c(=O)n(C)c3ccccc23)cc1
A. Medium

Q. Which category fits this record: COc1cccc(C(=O)Nc2cc(F)c(Br)cc2F)c1
A. Medium

Q. Each compound maps to one class by log fold change Tl+ flux. Which class for O=C(Nc1ccc(F)cc1)N1CCN(Cc2ccccc2)CC1 ?
A. High

====

System: R275C/beta4
protocolSummary: modulators of BK channel variants, profiling panel, selectivity assay, cell-based, U2OS BacMam, thallium flux, beta subunits (AID 1259406);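 also: initial slope of Thallos dye fluorescence rise after thallium is added; log ratio against the mean of 0.3% DMSO vehicle wells on the same plate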
measurementContext: at 30 µM
Calls of active or inactive are those of the source.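 How the source made its calls: active means thallium flux through the channel raised or lowered by more than 3 SD from vehicle-only wells, actives on both sides; inactive means the rest.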
I'd be grateful if you could share measured log fold change Tl+ flux for these entries.

Q. Entry under review: CC(C)=CC(C)=NNc1c([N+](=O)[O-])cc(C(F)(F)F)cc1[N+](=O)[O-] . Reported log fold change Tl+ flux?
A. -0.00952 (inactive)

Q. Form field: reported log fold change Tl+ flux of CCOC(=O)c1cnn(C(=O)c2ccc(-n3c(C)ccc3C)cc2)c1N
A. -0.00435 (inactive)

Q. Would you mind telling me what log fold change Tl+ flux value was observed for CCN1CCC(O)(C#Cc2ccccc2)CC1 ?
A. -0.01 (inactive)

Q. I'd like to know its log fold change Tl+ flux. The molecule in question is CSc1n[nH]c(N)c1S(=O)(=O)C(C)C
A. 0.0217 (inactive)

Q. Bench note: what log fold change Tl+ flux did N#CC(NCc1ccccc1Cl)=C(C#N)NCc1c(F)cccc1Cl show?
A. -0.185 (active)

Q. Bench note: what log fold change Tl+ flux did CCOC(=O)c1cnc(C(F)(F)F)nc1NN=Cc1c(Cl)cccc1Cl show?
A. -0.0487 (inactive)

Q. Name the recorded log fold change Tl+ flux for C=CC[C@@H]1C=C(C)C[C@H](C)C[C@H](OC)[C@H]2O[C@@](O)(C(=O)C(=O)N3CCCC[C@H]3C(=O)O[C@H](/C(C)=C/[C@@H]3CC[C@@H](O)[C@H](OC)C3)[C@H](C)[C@@H](O)CC1=O)[C@H](C)C[C@@H]2OC .
A. 0.467 (active)

Q. Look up log fold change Tl+ flux: CCC(C)(C)N=C(NC#N)Nc1cccnc1
A. 0.0126 (inactive)

Reference source: PubChem BioAssay
